- SYSTEM NAME: CXCL1_HUMAN (human, UniProt P09341 35-107)
- Sequence (P09341 35-107): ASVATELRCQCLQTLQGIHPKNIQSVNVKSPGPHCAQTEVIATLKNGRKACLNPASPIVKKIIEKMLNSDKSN
- TEST METHOD NOTES: BLI
REPORTED ENDPOINT: Kd (nM)
Quick note: give the figure in nM, leave out the unit.

Q) Supply reported Kd belonging to this binder: P1142_AMBCA (other) KPQILQRTDHSTDSDWDPQMCPETCNPSKNISCSSECLCVTLGGGDETGTCFNMSGVDWLGHAQASDGHNDG
A) 4.61

---
Q) Supply reported Kd belonging to this binder: P1156_IXORI (other) ADDDNELFTVQYCGMNCTKDEGGTWTGCTGKKEGCKCYHESGKNYGLCLSTEYTDFSQYGNPSDSEIEAAKPKRSDTLSH
A) 5.8

Q) Supply reported Kd belonging to this binder: P1128_IXORI (other) KDDEHFSVDYCGMNCTQQEDGSWTACSGRNEECRCYHESGKKNGLCLSTTYIDFSQYGNPSDSDIAAASPRP
A) 0.722

Q) Supply reported Kd belonging to this binder: P1229_IXORI (other) DDEFFTVDYCGMNCTLQQDGSWTPCTQKNAECKCYHESGSSVGLCLSTAYTDFNQFGDPNNSDLDAATPRHPDASSR
A) 13.4

Q) Supply reported Kd belonging to this binder: P1132_IXORI (other) LSDEDELFSVEYCGTNCTKQDTGSWTTCSGNCTCYHEDGKKVGLCLSTEYTDFTKFPKPTSEEIANARPLPKREKTLN
A) 11.9

Q) Supply reported Kd belonging to this binder: P1104_IXORI (other) ESKEASASQGPGKSFKVEFCETNCTENNGVWSGCTGDCICVSVGDSKEGRCMDLGDKVIDTPVAQG
A) 14.4
